Test system: 299254-011-R-J1-PDC complex spheroid viability;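 also: spheroids exposed to drugs for one week before measurement; percent viability relative to DMSO vehicle control taken as 100%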
Assay: Anticancer human tumor 299254-011-R-J1-PDC patient-derived melanoma cell line growth inhibition [POLQ]
Conditions: second compound 0.0316 µM; first compound 0.316 µM; hits give low values
Catalogue of viability, T/C values
Number only, in %; omit the unit.

Find the recorded viability, T/C belonging to CC(C)n1c(=O)n(C)c2cnc3cc(F)c(-c4ccc(OCCCN5CCCCC5)nc4)cc3c21 + COC1C(OC(N)=O)C(O)C(Oc2ccc3c(O)c(NC(=O)c4ccc(O)c(CC=C(C)C)c4)c(=O)oc3c2C)OC1(C)C and report it.
109

Find the recorded viability, T/C belonging to CC1COCCN1c1cc(C2(S(C)(=N)=O)CC2)nc(-c2ccnc3[nH]ccc23)n1 (stereo not given) + COC1C(OC(N)=O)C(O)C(Oc2ccc3c(O)c(NC(=O)c4ccc(O)c(CC=C(C)C)c4)c(=O)oc3c2C)OC1(C)C and report it.
102

Fill in the blank: the reported viability, T/C of O=c1[nH]cc(F)c(=O)[nH]1 + COC1C(OC(N)=O)C(O)C(Oc2ccc3c(O)c(NC(=O)c4ccc(O)c(CC=C(C)C)c4)c(=O)oc3c2C)OC1(C)C is ____.
122

Which viability, T/C reading was recorded for the compound O=C(Nc1ccc(O)c(NS(=O)(=O)c2ccc(F)cc2)c1)c1ccc(-c2ccccc2)cc1 + Cc1cccc(N(C)C(=O)C2C(O)CCN2c2nc(C)cc(C(F)(F)F)c2C#N)c1 ?
92.7

Now examine the next entry.
Requested field: viability, T/C. Item: C#Cc1c(F)ccc2cc(O)cc(-c3ncc4c(N5CC6CCC(C5)N6)nc(OCC56CCCN5CC(F)C6)nc4c3F)c12 (stereo not given) + COC1C(OC(N)=O)C(O)C(Oc2ccc3c(O)c(NC(=O)c4ccc(O)c(CC=C(C)C)c4)c(=O)oc3c2C)OC1(C)C
105

Where these numbers come from: PubChem BioAssay AID1963849
